- System: stress-induced fecal output
- Assay overview: Psychological stress-induced (water avoidance) IBS model, SC administration
- Assay type: in vivo
- Condition summary: 23.2 μmol/kg SC, 6-h collection
- Procedure: For drug preparation and administration, the compounds were put into solution with sterile normal saline and sonicated briefly, if necessary. […] Animal care and experimental procedures were approved by the Institutional Animal Care and Use Committee. […] The fecal output (number of pellets) of the stressed and unstressed animals was recorded at 30-min intervals for a 6-h period, during which they received no food or water. […]
Property name: Stool Output

Sample `CC(C)CNCCCNCCCCNCCCNCC(C)C` ; Stool Output observed: 6.6 ± 3.1 number of fecal pellets

Sample `CCCNCCCNCCCCNCCCNCCC` ; Stool Output observed: 5.7 ± 4.1 number of fecal pellets

Sample `CCNCCCNCCCCNCCCNCC` ; Stool Output observed: 12.5 ± 2.9 number of fecal pellets

Sample `CC(C)CNCCCNCCCCNCCCN` ; Stool Output observed: 10.6 ± 2.9 number of fecal pellets

Others:
Sample `FC(F)(F)c1ccccc1CCNCCCNCCCCNCCCNCCc1ccccc1C(F)(F)F` ; Stool Output observed: 11.4 ± 2.1 number of fecal pellets

Numbers sourced from patent US6818656B2.
